conditions: in DMSO, 297.65 K
endpoint: solubility (mole fraction)
Answers are plain numbers.

Requested field: solubility (mole fraction). Item: CC(C)=CCC[C@@H](C)[C@H]1CC[C@@]2(C)C3=C(CC[C@]12C)[C@@]1(C)CC[C@H](O)C(C)(C)[C@@H]1CC3
0.00019

---

conditions: in isopropanol, 307.27 K
endpoint: solubility (mole fraction)

# query: solubility (mole fraction) of entry CC(C)=CCC[C@@H](C)[C@H]1CC[C@@]2(C)C3=C(CC[C@]12C)[C@@]1(C)CC[C@H](O)C(C)(C)[C@@H]1CC3
0.00159

---

conditions: in methanol, 316.95 K
endpoint: solubility (mole fraction)
One number for each entry.

// solubility (mole fraction) lookup, key: CC(C)=CCC[C@@H](C)[C@H]1CC[C@@]2(C)C3=C(CC[C@]12C)[C@@]1(C)CC[C@H](O)C(C)(C)[C@@H]1CC3
0.00021

---

details: in acetone, 278.65 K
endpoint: solubility (mole fraction)

Which measured solubility (mole fraction) value corresponds to CC(C)=CCC[C@@H](C)[C@H]1CC[C@@]2(C)C3=C(CC[C@]12C)[C@@]1(C)CC[C@H](O)C(C)(C)[C@@H]1CC3 ?
0.00066

---

details: in DMF, 318.55 K
endpoint: solubility (mole fraction)
One number for each entry.

Record request: solubility (mole fraction) value, item CC(C)=CCC[C@@H](C)[C@H]1CC[C@@]2(C)C3=C(CC[C@]12C)[C@@]1(C)CC[C@H](O)C(C)(C)[C@@H]1CC3
0.00294

---

conditions: in DMF, 294.65 K
endpoint: solubility (mole fraction)
One number for each entry.

# input molecule: CC(C)=CCC[C@@H](C)[C@H]1CC[C@@]2(C)C3=C(CC[C@]12C)[C@@]1(C)CC[C@H](O)C(C)(C)[C@@H]1CC3 ; wanted: its solubility (mole fraction)
0.00073

---

details: in acetone, 293.25 K
endpoint: solubility (mole fraction)

Endpoint output: solubility (mole fraction) of CC(C)=CCC[C@@H](C)[C@H]1CC[C@@]2(C)C3=C(CC[C@]12C)[C@@]1(C)CC[C@H](O)C(C)(C)[C@@H]1CC3 . Value?
0.00127

---

conditions: in DMF, 284.65 K
endpoint: solubility (mole fraction)

solubility (mole fraction) for CC(C)=CCC[C@@H](C)[C@H]1CC[C@@]2(C)C3=C(CC[C@]12C)[C@@]1(C)CC[C@H](O)C(C)(C)[C@@H]1CC3 ?
0.00051

---

conditions: in ethyl acetate, 318.64 K
endpoint: solubility (mole fraction)
Answers are plain numbers.

Quick one: solubility (mole fraction) of CC(C)=CCC[C@@H](C)[C@H]1CC[C@@]2(C)C3=C(CC[C@]12C)[C@@]1(C)CC[C@H](O)C(C)(C)[C@@H]1CC3 ?
0.00443

---

details: in n-propanol, 298.84 K
endpoint: solubility (mole fraction)

Given CC(C)=CCC[C@@H](C)[C@H]1CC[C@@]2(C)C3=C(CC[C@]12C)[C@@]1(C)CC[C@H](O)C(C)(C)[C@@H]1CC3 , state its recorded solubility (mole fraction).
0.00209

---

conditions: in DMF, 289.15 K
endpoint: solubility (mole fraction)
Give bare numbers.

So what's the measured solubility (mole fraction) for this one? CC(C)=CCC[C@@H](C)[C@H]1CC[C@@]2(C)C3=C(CC[C@]12C)[C@@]1(C)CC[C@H](O)C(C)(C)[C@@H]1CC3
0.00063

---

settings: in DMF, 303.05 K
endpoint: solubility (mole fraction)

Which solubility (mole fraction) is reported for this molecule? CC(C)=CCC[C@@H](C)[C@H]1CC[C@@]2(C)C3=C(CC[C@]12C)[C@@]1(C)CC[C@H](O)C(C)(C)[C@@H]1CC3
0.00138

---

conditions: in acetone, 302.75 K
endpoint: solubility (mole fraction)
Give bare numbers.

I would be grateful if you could share the reported solubility (mole fraction) for CC(C)=CCC[C@@H](C)[C@H]1CC[C@@]2(C)C3=C(CC[C@]12C)[C@@]1(C)CC[C@H](O)C(C)(C)[C@@H]1CC3 .
0.00193

---

details: in methanol, 303.05 K
endpoint: solubility (mole fraction)
Answers are plain numbers.

Quick check: solubility (mole fraction) of CC(C)=CCC[C@@H](C)[C@H]1CC[C@@]2(C)C3=C(CC[C@]12C)[C@@]1(C)CC[C@H](O)C(C)(C)[C@@H]1CC3 ?
0.00011

---

conditions: in ethyl acetate, 298.05 K
endpoint: solubility (mole fraction)

Need solubility (mole fraction) of CC(C)=CCC[C@@H](C)[C@H]1CC[C@@]2(C)C3=C(CC[C@]12C)[C@@]1(C)CC[C@H](O)C(C)(C)[C@@H]1CC3 , thanks.
0.00187
